Tested on: NCI-H226
assayProcedure: NCI tumour cell line growth inhibition, 48 h
Active and inactive are the calls of the source. Cut-off read from the data, not from the text of the source: active = GI50 up to about 1.1 µM and inactive = higher.
Result category, one only: y = active, n = inactive

Example entries and their recorded answers appear below.
CC(=O)c1cc(I)c(O)c2ncccc12 : n
CCOC(=O)C1(Cc2ccccc2)Cc2cc3c(cc2C1=O)CCC3 (centres undefined) : n
c1ccc(C2C(=P(c3ccccc3)(c3ccccc3)c3ccccc3)P=PC2[P+](c2ccccc2)(c2ccccc2)c2ccccc2)cc1.c1ccc([B-](c2ccccc2)(c2ccccc2)c2ccccc2)cc1 (centres undefined) : y

Could you now consider this next compound?
IN: Hi, do you know how CC1(c2nc3ccccc3[nH]2)CCC(C(N)=O)C(C)(C)O1 (centres undefined) came out in this test?
OUT: n

====

System: COLO 205
assayProcedure: NCI tumour cell line growth inhibition, 48 h
The source made the active and inactive calls. No stated cut-off is given here; in the data, active = GI50 up to about 1.1 µM and inactive = higher.
Result category, one only: True = active, False = inactive

Example entries and their recorded answers appear below.
COc1ccc(NC2Oc3cc4c(cc3C(c3cccc(OC)c3OC)C2C)OCO4)cc1 (stereo not given) : False
COc1ccc(C2Oc3c(OC)cc(CCCO)cc3C2CO)cc1OC (stereo not given) : False

IN: Hi, do you know how COc1cc(/C=C/C(=O)Oc2ccc(NC(C)=O)cc2)ccc1C(=O)OCc1ccccc1 came out in this test?
OUT: False

IN: Hi, do you know how C#CCSC(C=C=C)P(=O)(OC(C)C)OC(C)C (stereo not given) came out in this test?
OUT: False

IN: Hi, do you know how Nc1nc(=S)[nH]c2nc3c(c(-c4ccccc4)c12)CCCC3 came out in this test?
OUT: False

IN: Hi, do you know how COc1ccc2c(c1)[n+]([O-])c(C(=O)C/C(=N/NC(=O)C[N+](C)(C)C)C(=O)Nc1cccc(C)c1C)c(C)[n+]2[O-] came out in this test?
OUT: False

IN: Hi, do you know how COc1ccn(CC(=O)c2cc3ccccc3[nH]2)c(=O)n1 came out in this test?
OUT: False

====

System: MCF7
assayProcedure: NCI tumour cell line growth inhibition, 48 h
Activity calls are given as the source filed them. Rule as the data show it: active = GI50 up to about 1.1 µM and inactive = higher.
testReadout: GI50

Below, 3 compounds whose answers are already recorded.
COC(=O)C12CCC(C(F)(F)C1=O)C2(C)C (stereo not given) : > 100 µM (inactive)
CN(C)CCNC(=O)Cn1cc([N+](=O)[O-])c(=O)c2ccccc21 : > 100 µM (inactive)
COC(=O)Cc1cc(O)c(C/C=C(\C)CC/C=C(\C)C(O)C(=O)C=C(C)C)cc1O (stereo not given) : 32.1 µM (inactive)

IN: Query GI50 on MCF7 for Cc1ccccc1N/C(N)=N/C#N
OUT: > 100 µM (inactive)

IN: Query GI50 on MCF7 for COC(=O)c1c[nH]c2c1-c1cc(C(=O)OCc3ccccc3)n(S(=O)(=O)c3ccc(C)cc3)c1C(=O)C2=O
OUT: 0.184 µM (active)

====

Tested on: U-251
assayProcedure: NCI tumour cell line growth inhibition, 48 h
The source made the active and inactive calls. No stated cut-off is given here; in the data, active = GI50 up to about 1.1 µM and inactive = higher.
Result category, one only: yes (1) = active, no (0) = inactive

CC(=O)O[C@H]1C[C@H](O[C@H]2[C@@H](O)C[C@H](O[C@H]3[C@@H](O)C[C@H](O[C@H]4CC[C@@]5(C)[C@H](CC[C@@H]6[C@@H]5CC[C@]5(C)[C@@H](C7=CC(=O)OC7)CC[C@]65O)C4)O[C@@H]3C)O[C@@H]2C)O[C@H](C)[C@H]1O[C@@H]1O[C@H](CO)[C@@H](O)[C@H](O)[C@H]1O : yes (1)

IN: Hi, do you know how O=C1CCC(=O)N1CNc1cccc(NCN2C(=O)CCC2=O)c1 came out in this test?
OUT: no (0)

IN: Hi, do you know how CCN(CCN(CC)C(=O)NC)C(=O)NC came out in this test?
OUT: no (0)

IN: Hi, do you know how CN(C)CCOc1ccc2[nH]c(C(=O)N3CC(CCl)c4c3cc(N)c3ccccc43)cc2c1 (stereo not given) came out in this test?
OUT: yes (1)

IN: Hi, do you know how CC(C(=O)C(C)O[Si](c1ccccc1)(c1ccccc1)C(C)(C)C)=P(c1ccccc1)(c1ccccc1)c1ccccc1 (stereo not given) came out in this test?
OUT: no (0)

This collection of values is drawn from ChEMBL document CHEMBL1201862.
